# assay: Activation of cellular function of cytochalasin B-pretreated human neutrophils assessed as induction of lysozyme release at 1 uM after 15 mins by microplate-based assay
# Type: functional, cell-based
# conditions: Neutrophil
Each item that follows carries a reported Efficacy.

| mol | Efficacy, % |
| --- | --- |
| COC(=O)[C@H](Cc1ccccc1)NC(=O)[C@H](CC(C)C)NC(=O)[C@H](CCSC)NC=O | 60 |
| COC(=O)[C@H](CCCCN[C@@H](Cc1ccccc1)C(=O)N[C@@H](CC(C)C)C(=O)N[C@H](C=O)CCSC)NC(=O)[C@H](Cc1ccccc1)NC(=O)[C@H](CC(C)C)NC(=O)[C@H](CCSC)NC=O | 40 |
| COC(=O)C[C@H](NCCCC[C@H](NC(=O)[C@H](Cc1ccccc1)NC(=O)[C@H](CC(C)C)NC(=O)[C@H](CCSC)NC=O)C(=O)OC)C(=O)N[C@@H](Cc1ccccc1)C(=O)N[C@@H](CC(C)C)C(=O)N[C@H](C=O)CCSC | 20 |
| COC(=O)[C@H](CCCCN[C@@H](Cc1ccccc1)C(=O)N[C@@H](CC(C)C)C(=O)N[C@H](C=O)CCSC)NC(=O)[C@H](CCCCN[C@@H](Cc1ccccc1)C(=O)N[C@@H](CC(C)C)C(=O)N[C@H](C=O)CCSC)NC(=O)[C@H](Cc1ccccc1)NC(=O)[C@H](CC(C)C)NC(=O)[C@H](CCSC)NC=O | 40 |
